All figures here come from ChEMBL document CHEMBL3596129.

- Target system: CYP2C19 (Homo sapiens, UniProt P33261)
- Sequence (P33261 whole entry): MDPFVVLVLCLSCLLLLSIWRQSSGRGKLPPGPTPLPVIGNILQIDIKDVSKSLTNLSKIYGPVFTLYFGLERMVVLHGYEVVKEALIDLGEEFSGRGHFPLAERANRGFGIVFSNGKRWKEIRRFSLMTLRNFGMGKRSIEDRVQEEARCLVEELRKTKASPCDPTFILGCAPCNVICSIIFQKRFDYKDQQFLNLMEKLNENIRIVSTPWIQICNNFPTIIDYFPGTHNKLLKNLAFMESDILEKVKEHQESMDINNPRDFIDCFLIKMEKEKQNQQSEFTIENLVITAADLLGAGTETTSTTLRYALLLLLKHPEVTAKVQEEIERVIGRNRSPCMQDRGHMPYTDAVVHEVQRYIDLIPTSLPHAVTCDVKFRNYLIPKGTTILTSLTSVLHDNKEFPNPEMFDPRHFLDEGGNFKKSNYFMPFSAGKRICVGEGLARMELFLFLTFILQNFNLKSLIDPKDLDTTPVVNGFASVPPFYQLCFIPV
- Protocol notes: Inhibition of human CYP2C19 at 10 uM preincubated for 10 mins with cofactor followed by mixture of enzyme-substrate addition by fluorescence assay relative to control
- Format: ADME
Endpoint label: inhibition at 10 µM (%)
Give the value, in units of %, as a plain number.

**Query** Which inhibition at 10 µM value is on record for COc1ccc2ccc(=O)oc2c1CC=C(C)C [OSTHOLE] ?
**Result** 56.5

* * *

- System: P-gp
- Protocol notes: Substrate activity at P-gp in human Caco2 cells assessed as apparent permeability across basolateral to apical side at 10 uM after 90 mins by HPLC with mass spectrometric method
- Type: ADME, cell-based
- Conditions: Caco-2
Endpoint label: Papp B→A at 1.5 h, 10 µM (×10⁻⁶ cm/s)
Give the value, in units of ×10⁻⁶ cm/s, as a plain number.

COc1ccc2ccc(=O)oc2c1CC=C(C)C | 35

With those in mind, consider the next compound.
**Query** Which Papp B→A at 1.5 h, 10 µM value is on record for C[C@H]1O[C@@H](O[C@H]2[C@@H](O)C[C@H](O[C@H]3[C@@H](O)C[C@H](O[C@H]4CC[C@@]5(C)[C@H](CC[C@@H]6[C@@H]5C[C@@H](O)[C@]5(C)[C@@H](C7=CC(=O)OC7)CC[C@]65O)C4)O[C@@H]3C)O[C@@H]2C)C[C@H](O)[C@@H]1O ?
**Result** 12.4
